- Measurement notes: Biodistribution study with lead-212
- Format: in vivo, mouse
- Study conditions: mouse, skin, intravenous, 100 kBq, 4 h p.i.; n = 4; read-out: Skin uptake
Quantity: tissue uptake at 4 h (%ID/g)
Value expressed in %ID/g; do not type the unit.

Please review the entries below; each comes with its answer.
C[C@@H](O)[C@H](NC(=O)[C@@H]1CSSC[C@H](NC(=O)[C@@H](Cc2ccccc2)NC(=O)CN2CCC(NC(=O)CN3CCN(CC(N)=O)CCN(CC(N)=O)CCN(CC(N)=O)CC3)CC2)C(=O)N[C@@H](Cc2ccc(O)cc2)C(=O)N[C@H](Cc2c[nH]c3ccccc23)C(=O)N[C@@H](CCCCN)C(=O)N[C@@H]([C@@H](C)O)C(=O)N1)C(=O)O [[^212Pb]Pb-eSOMA-02, metal not drawn] | 0.25
C[C@@H](O)[C@H](NC(=O)[C@@H]1CSSC[C@H](NC(=O)[C@@H](Cc2ccccc2)NC(=O)CN2CCN(CC(N)=O)CCN(CC(N)=O)CCN(CC(N)=O)CC2)C(=O)N[C@@H](Cc2ccc(O)cc2)C(=O)N[C@H](Cc2c[nH]c3ccccc23)C(=O)N[C@@H](CCCCN)C(=O)N[C@@H]([C@@H](C)O)C(=O)N1)C(=O)O [[^212Pb]Pb-DOTAM-TATE, metal not drawn, reference compound] | 0.59

For the next question, use this molecule.
Lookup: Return tissue uptake at 4 h (reported value) for this molecule: C[C@@H](O)[C@H](NC(=O)[C@@H]1CSSC[C@H](NC(=O)[C@@H](Cc2ccccc2)NC(=O)[C@H]2CC[C@H](CNC(=O)CN3CCN(CC(N)=O)CCN(CC(N)=O)CCN(CC(N)=O)CC3)CC2)C(=O)N[C@@H](Cc2ccc(O)cc2)C(=O)N[C@H](Cc2c[nH]c3ccccc23)C(=O)N[C@@H](CCCCN)C(=O)N[C@@H]([C@@H](C)O)C(=O)N1)C(=O)O [[^212Pb]Pb-eSOMA-01, metal not drawn]
Found: 0.17

###

- Measurement notes: In vitro stability in PBS
- Assay type: physicochemical
- Study conditions: phosphate buffered saline, pH 7.4; ^203Pb-labeled; 1 h; 37 °C; n = 1; read-out: Stability in PBS, intact labeled ligand
Quantity: remaining at 1 h (%)
Value expressed in %; do not type the unit.

Lookup: Return remaining at 1 h (reported value) for this compound: C[C@@H](O)[C@H](NC(=O)[C@@H]1CSSC[C@H](NC(=O)[C@@H](Cc2ccccc2)NC(=S)Nc2ccc(CC3CN(CC(N)=O)CCN(CC(N)=O)CCN(CC(N)=O)CCN3CC(N)=O)cc2)C(=O)N[C@@H](Cc2ccc(O)cc2)C(=O)N[C@H](Cc2c[nH]c3ccccc23)C(=O)N[C@@H](CCCCN)C(=O)N[C@@H]([C@@H](C)O)C(=O)N1)C(=O)O (stereo partly shown) [[^203Pb]Pb-eSOMA-03, metal not drawn]
Found: 70

###

As shown below, each of these compounds has a reported tissue uptake at 24 h value.
- Measurement notes: Biodistribution study with lead-212
- Format: in vivo, mouse
- Study conditions: mouse, stomach, intravenous, 100 kBq, 24 h p.i.; n = 4; read-out: Stomach uptake
Value expressed in %ID/g; do not type the unit.

C[C@@H](O)[C@H](NC(=O)[C@@H]1CSSC[C@H](NC(=O)[C@@H](Cc2ccccc2)NC(=O)[C@H]2CC[C@H](CNC(=O)CN3CCN(CC(N)=O)CCN(CC(N)=O)CCN(CC(N)=O)CC3)CC2)C(=O)N[C@@H](Cc2ccc(O)cc2)C(=O)N[C@H](Cc2c[nH]c3ccccc23)C(=O)N[C@@H](CCCCN)C(=O)N[C@@H]([C@@H](C)O)C(=O)N1)C(=O)O [[^212Pb]Pb-eSOMA-01, metal not drawn] | 0.87

Lookup: Return tissue uptake at 24 h (reported value) for this compound: C[C@@H](O)[C@H](NC(=O)[C@@H]1CSSC[C@H](NC(=O)[C@@H](Cc2ccccc2)NC(=O)CN2CCN(CC(N)=O)CCN(CC(N)=O)CCN(CC(N)=O)CC2)C(=O)N[C@@H](Cc2ccc(O)cc2)C(=O)N[C@H](Cc2c[nH]c3ccccc23)C(=O)N[C@@H](CCCCN)C(=O)N[C@@H]([C@@H](C)O)C(=O)N1)C(=O)O [[^212Pb]Pb-DOTAM-TATE, metal not drawn, reference compound]
Found: 0.61

Lookup: Return tissue uptake at 24 h (reported value) for this compound: C[C@@H](O)[C@H](NC(=O)[C@@H]1CSSC[C@H](NC(=O)[C@@H](Cc2ccccc2)NC(=O)CN2CCC(NC(=O)CN3CCN(CC(N)=O)CCN(CC(N)=O)CCN(CC(N)=O)CC3)CC2)C(=O)N[C@@H](Cc2ccc(O)cc2)C(=O)N[C@H](Cc2c[nH]c3ccccc23)C(=O)N[C@@H](CCCCN)C(=O)N[C@@H]([C@@H](C)O)C(=O)N1)C(=O)O [[^212Pb]Pb-eSOMA-02, metal not drawn]
Found: 0.36

###

As shown below, each of these compounds has a reported tissue uptake at 4 h value.
- Measurement notes: Biodistribution study with lead-212
- Assay type: in vivo, mouse
- Study conditions: mouse, tumor, intravenous, 100 kBq, 4 h p.i.; n = 4; read-out: Tumor uptake
Value expressed in %ID/g; do not type the unit.

Lookup: Return tissue uptake at 4 h (reported value) for this compound: C[C@@H](O)[C@H](NC(=O)[C@@H]1CSSC[C@H](NC(=O)[C@@H](Cc2ccccc2)NC(=O)CN2CCC(NC(=O)CN3CCN(CC(N)=O)CCN(CC(N)=O)CCN(CC(N)=O)CC3)CC2)C(=O)N[C@@H](Cc2ccc(O)cc2)C(=O)N[C@H](Cc2c[nH]c3ccccc23)C(=O)N[C@@H](CCCCN)C(=O)N[C@@H]([C@@H](C)O)C(=O)N1)C(=O)O [[^212Pb]Pb-eSOMA-02, metal not drawn]
Found: 7.45

Lookup: Return tissue uptake at 4 h (reported value) for this compound: C[C@@H](O)[C@H](NC(=O)[C@@H]1CSSC[C@H](NC(=O)[C@@H](Cc2ccccc2)NC(=O)CN2CCN(CC(N)=O)CCN(CC(N)=O)CCN(CC(N)=O)CC2)C(=O)N[C@@H](Cc2ccc(O)cc2)C(=O)N[C@H](Cc2c[nH]c3ccccc23)C(=O)N[C@@H](CCCCN)C(=O)N[C@@H]([C@@H](C)O)C(=O)N1)C(=O)O [[^212Pb]Pb-DOTAM-TATE, metal not drawn, reference compound]
Found: 8.04

Lookup: Return tissue uptake at 4 h (reported value) for this compound: C[C@@H](O)[C@H](NC(=O)[C@@H]1CSSC[C@H](NC(=O)[C@@H](Cc2ccccc2)NC(=O)[C@H]2CC[C@H](CNC(=O)CN3CCN(CC(N)=O)CCN(CC(N)=O)CCN(CC(N)=O)CC3)CC2)C(=O)N[C@@H](Cc2ccc(O)cc2)C(=O)N[C@H](Cc2c[nH]c3ccccc23)C(=O)N[C@@H](CCCCN)C(=O)N[C@@H]([C@@H](C)O)C(=O)N1)C(=O)O [[^212Pb]Pb-eSOMA-01, metal not drawn]
Found: 10.9

###

- Measurement notes: Biodistribution study with lead-212
- Assay type: in vivo, mouse
- Study conditions: mouse, blood, intravenous, 100 kBq, 1 h p.i.; n = 4; read-out: Blood uptake
Quantity: tissue uptake at 1 h (%ID/g)
Value expressed in %ID/g; do not type the unit.

Please review the entries below; each comes with its answer.
C[C@@H](O)[C@H](NC(=O)[C@@H]1CSSC[C@H](NC(=O)[C@@H](Cc2ccccc2)NC(=O)CN2CCN(CC(N)=O)CCN(CC(N)=O)CCN(CC(N)=O)CC2)C(=O)N[C@@H](Cc2ccc(O)cc2)C(=O)N[C@H](Cc2c[nH]c3ccccc23)C(=O)N[C@@H](CCCCN)C(=O)N[C@@H]([C@@H](C)O)C(=O)N1)C(=O)O [[^212Pb]Pb-DOTAM-TATE, metal not drawn, reference compound] | 1.34
C[C@@H](O)[C@H](NC(=O)[C@@H]1CSSC[C@H](NC(=O)[C@@H](Cc2ccccc2)NC(=O)CN2CCC(NC(=O)CN3CCN(CC(N)=O)CCN(CC(N)=O)CCN(CC(N)=O)CC3)CC2)C(=O)N[C@@H](Cc2ccc(O)cc2)C(=O)N[C@H](Cc2c[nH]c3ccccc23)C(=O)N[C@@H](CCCCN)C(=O)N[C@@H]([C@@H](C)O)C(=O)N1)C(=O)O [[^212Pb]Pb-eSOMA-02, metal not drawn] | 1.44

For the next question, use this compound.
Lookup: Return tissue uptake at 1 h (reported value) for this compound: C[C@@H](O)[C@H](NC(=O)[C@@H]1CSSC[C@H](NC(=O)[C@@H](Cc2ccccc2)NC(=O)[C@H]2CC[C@H](CNC(=O)CN3CCN(CC(N)=O)CCN(CC(N)=O)CCN(CC(N)=O)CC3)CC2)C(=O)N[C@@H](Cc2ccc(O)cc2)C(=O)N[C@H](Cc2c[nH]c3ccccc23)C(=O)N[C@@H](CCCCN)C(=O)N[C@@H]([C@@H](C)O)C(=O)N1)C(=O)O [[^212Pb]Pb-eSOMA-01, metal not drawn]
Found: 1.8
